- MEASURED_TARGET: Polyunsaturated fatty acid 5-lipoxygenase (Homo sapiens) (UniProt P09917)
- Sequence (P09917 whole entry): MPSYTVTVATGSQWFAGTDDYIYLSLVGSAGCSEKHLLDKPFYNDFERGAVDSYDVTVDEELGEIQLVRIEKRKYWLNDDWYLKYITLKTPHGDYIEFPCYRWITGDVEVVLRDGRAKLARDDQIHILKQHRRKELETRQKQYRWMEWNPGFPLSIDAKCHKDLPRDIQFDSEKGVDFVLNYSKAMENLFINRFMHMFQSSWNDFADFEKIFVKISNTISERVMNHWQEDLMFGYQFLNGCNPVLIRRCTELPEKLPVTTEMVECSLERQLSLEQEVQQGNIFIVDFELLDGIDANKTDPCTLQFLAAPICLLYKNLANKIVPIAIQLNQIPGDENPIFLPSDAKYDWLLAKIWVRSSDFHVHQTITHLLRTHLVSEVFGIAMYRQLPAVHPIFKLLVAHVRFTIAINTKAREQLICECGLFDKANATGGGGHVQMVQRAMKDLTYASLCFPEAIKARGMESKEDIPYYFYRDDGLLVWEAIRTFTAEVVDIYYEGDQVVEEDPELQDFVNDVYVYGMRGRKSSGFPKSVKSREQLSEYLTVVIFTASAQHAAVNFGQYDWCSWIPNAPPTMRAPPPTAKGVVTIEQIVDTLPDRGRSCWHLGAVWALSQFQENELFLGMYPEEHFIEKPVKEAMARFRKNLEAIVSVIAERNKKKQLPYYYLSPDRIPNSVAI
- PROTOCOL_SUMMARY: Ex vivo inhibition of 5-lipoxygenase was determined by the measurement of A-23187-stimulated LTB4 production in dog blood at 6.0h, following intravenous administration at the dose of 1.0 mg/kg
- Format: functional, organism-based
- Design: dose 1 mg/kg
- CONDITION_SUMMARY: Canis lupus familiaris, target entry is the homologue from another species
ENDPOINT_NAME: inhibition (%)

In [3]: df
Out[3]:
                                   compound  assay_value
0  NC(=O)N(O)CC1COc2ccc(Oc3ccccc3)cc2O1 (stereo not given)           22
1  CNC(=O)N(O)CC1COc2ccc(Oc3ccccc3)cc2O1 (stereo not given)            0
2  CCCCNC(=O)N(O)CC1COc2ccccc2O1 (stereo not given)            0
3  CC(c1cc2ccccc2s1)N(O)C(N)=O (stereo not given)           56
4  NC(=O)N(O)CC1COc2ccc(Oc3ccc(F)cc3)cc2O1 (stereo not given)           63

---

- MEASURED_TARGET: Polyunsaturated fatty acid 5-lipoxygenase (Homo sapiens)
- PROTOCOL_SUMMARY: Ex vivo inhibition of 5-lipoxygenase was determined by the measurement of A-23187-stimulated LTB4 production in dog blood at 0.5h, following intravenous administration at the dose of 1.0 mg/kg
- Type: functional, organism-based
- Set-up: dose 1 mg/kg
- CONDITION_SUMMARY: Canis lupus familiaris, target entry is the homologue from another species
Outcome: 1 for inhibition of at least 90%; -1 for anything lower.

>>> print(df.to_string())
                                   molecule                           measured_target  label
0  CCCCNC(=O)N(O)CC1COc2ccccc2O1 (stereo unspecified)  Polyunsaturated fatty acid 5-lipoxygenase (Homo sapiens)     -1
1  NC(=O)N(O)CC1COc2ccc(Oc3ccccc3)cc2O1 (stereo unspecified)  Polyunsaturated fatty acid 5-lipoxygenase (Homo sapiens)      1
2  CNC(=O)N(O)CC1COc2ccc(Oc3ccccc3)cc2O1 (stereo unspecified)  Polyunsaturated fatty acid 5-lipoxygenase (Homo sapiens)      1
3  NC(=O)N(O)C[C@@H]1COc2ccc(Oc3ccc(F)cc3)cc2O1  Polyunsaturated fatty acid 5-lipoxygenase (Homo sapiens)      1
4  NC(=O)N(O)CC1COc2ccc(Oc3ccc(F)cc3)cc2O1 (stereo unspecified)  Polyunsaturated fatty acid 5-lipoxygenase (Homo sapiens)      1
